Measured values drawn from patent US4278686A for this set.

Test system: Staphylococcus aureus Russell
Assay: minimum inhibitory concentration, Staphylococcus aureus Russell (DST agar+10% horse blood)
Assay type: cell-based
Description: The minimum inhibitory concentrations (MIC) of the compound (e54) was determined using a standard DST agar+10% horse blood substrate. The tests used an undiluted inoculum of bacteria. […] The minimum inhibitory concentrations (MIC) of this compound was determined using a standard DST agar+10% horse blood substrate. The minimum inhibitory concentrations (MIC) of this compound was determined using a standard DST agar+10% horse blood substrate. The tests used an undiluted inoculum of bacteria.
MIC reference

Worked examples, 3 compounds total:
| Compound | Observable | Reported value |
| --- | --- | --- |
| CC(=O)N/C=C/SC1=C(C(=O)[O-])N2C(=O)[C@H](C(C)SCc3ccccc3)[C@H]2C1.[Na+] (some centres unmarked) | MIC | 0.8 µg/mL |
| CC[C@@H]1C(=O)N2C(C(=O)[O-])=C(SCCNC(C)=O)C[C@H]12.[Na+] | MIC | 0.6 µg/mL |
| CC(=O)N/C=C/SC1=C(C(=O)[O-])N2C(=O)[C@H](C(C)SCCNC(C)=O)[C@H]2C1.[Na+] (some centres unmarked) | MIC | 2.5 µg/mL |

## Input // lookup MIC for C=CCSC(C)[C@H]1C(=O)N2C(C(=O)[O-])=C(S/C=C/NC(C)=O)C[C@H]12.[Na+] (some centres unmarked)
## Output 1.6 µg/mL

## Input // lookup MIC for CC[C@@H]1C(=O)N2C(C(=O)[O-])=C(S/C=C/NC(C)=O)C[C@H]12.[Na+]
## Output 2.5 µg/mL

---

Tested on: Escherichia coli JT 39
Experiment: minimum inhibitory concentration, Escherichia coli JT 39 (DST agar+10% horse blood)
Assay type: cell-based
Settings: JT39
Observable: MIC (µg/mL)
Respond numerically; units are µg/mL and should not be typed.

Worked examples, 3 compounds total:
| Compound | MIC (µg/mL) |
| --- | --- |
| CC(=O)N/C=C/SC1=C(C(=O)[O-])N2C(=O)[C@H](C(C)SCCNC(C)=O)[C@H]2C1.[Na+] (some centres unmarked) | 5 |
| C=CCSC(C)[C@H]1C(=O)N2C(C(=O)[O-])=C(S/C=C/NC(C)=O)C[C@H]12.[Na+] (some centres unmarked) | 25 |
| CC(=O)N/C=C/SC1=C(C(=O)[O-])N2C(=O)[C@H](C(C)SCc3ccccc3)[C@H]2C1.[Na+] (some centres unmarked) | 3.1 |

## Input // lookup MIC for CC[C@@H]1C(=O)N2C(C(=O)[O-])=C(SCCNC(C)=O)C[C@H]12.[Na+]
## Output 10

## Input // lookup MIC for CC[C@@H]1C(=O)N2C(C(=O)[O-])=C(S/C=C/NC(C)=O)C[C@H]12.[Na+]
## Output 10

---

Tested on: Escherichia coli 0111
Experiment: minimum inhibitory concentration, Escherichia coli 0111 (DST agar+10% horse blood)
Format: cell-based
Observable: MIC (µg/mL)
Respond numerically; units are µg/mL and should not be typed.

Worked examples, 4 compounds total:
| Compound | Observable | Unit of measurement | Reported value |
| --- | --- | --- | --- |
| CC[C@@H]1C(=O)N2C(C(=O)[O-])=C(SCCNC(C)=O)C[C@H]12.[Na+] | MIC | µg/mL | 2.5 |
| C=CCSC(C)[C@H]1C(=O)N2C(C(=O)[O-])=C(S/C=C/NC(C)=O)C[C@H]12.[Na+] (some centres unmarked) | MIC | µg/mL | 50 |
| CC[C@@H]1C(=O)N2C(C(=O)[O-])=C(S/C=C/NC(C)=O)C[C@H]12.[Na+] | MIC | µg/mL | 2.5 |
| CC(=O)N/C=C/SC1=C(C(=O)[O-])N2C(=O)[C@H](C(C)SCc3ccccc3)[C@H]2C1.[Na+] (some centres unmarked) | MIC | µg/mL | 3.1 |

Consider now this further compound.
## Input Give Escherichia coli 0111 MIC for CC(=O)N/C=C/SC1=C(C(=O)[O-])N2C(=O)[C@H](C(C)SCCNC(C)=O)[C@H]2C1.[Na+] (some centres unmarked)
## Output 5
